tested.target: Sodium channel protein type 10 subunit alpha (Homo sapiens)
Sequence (Q9Y5Y9 whole entry): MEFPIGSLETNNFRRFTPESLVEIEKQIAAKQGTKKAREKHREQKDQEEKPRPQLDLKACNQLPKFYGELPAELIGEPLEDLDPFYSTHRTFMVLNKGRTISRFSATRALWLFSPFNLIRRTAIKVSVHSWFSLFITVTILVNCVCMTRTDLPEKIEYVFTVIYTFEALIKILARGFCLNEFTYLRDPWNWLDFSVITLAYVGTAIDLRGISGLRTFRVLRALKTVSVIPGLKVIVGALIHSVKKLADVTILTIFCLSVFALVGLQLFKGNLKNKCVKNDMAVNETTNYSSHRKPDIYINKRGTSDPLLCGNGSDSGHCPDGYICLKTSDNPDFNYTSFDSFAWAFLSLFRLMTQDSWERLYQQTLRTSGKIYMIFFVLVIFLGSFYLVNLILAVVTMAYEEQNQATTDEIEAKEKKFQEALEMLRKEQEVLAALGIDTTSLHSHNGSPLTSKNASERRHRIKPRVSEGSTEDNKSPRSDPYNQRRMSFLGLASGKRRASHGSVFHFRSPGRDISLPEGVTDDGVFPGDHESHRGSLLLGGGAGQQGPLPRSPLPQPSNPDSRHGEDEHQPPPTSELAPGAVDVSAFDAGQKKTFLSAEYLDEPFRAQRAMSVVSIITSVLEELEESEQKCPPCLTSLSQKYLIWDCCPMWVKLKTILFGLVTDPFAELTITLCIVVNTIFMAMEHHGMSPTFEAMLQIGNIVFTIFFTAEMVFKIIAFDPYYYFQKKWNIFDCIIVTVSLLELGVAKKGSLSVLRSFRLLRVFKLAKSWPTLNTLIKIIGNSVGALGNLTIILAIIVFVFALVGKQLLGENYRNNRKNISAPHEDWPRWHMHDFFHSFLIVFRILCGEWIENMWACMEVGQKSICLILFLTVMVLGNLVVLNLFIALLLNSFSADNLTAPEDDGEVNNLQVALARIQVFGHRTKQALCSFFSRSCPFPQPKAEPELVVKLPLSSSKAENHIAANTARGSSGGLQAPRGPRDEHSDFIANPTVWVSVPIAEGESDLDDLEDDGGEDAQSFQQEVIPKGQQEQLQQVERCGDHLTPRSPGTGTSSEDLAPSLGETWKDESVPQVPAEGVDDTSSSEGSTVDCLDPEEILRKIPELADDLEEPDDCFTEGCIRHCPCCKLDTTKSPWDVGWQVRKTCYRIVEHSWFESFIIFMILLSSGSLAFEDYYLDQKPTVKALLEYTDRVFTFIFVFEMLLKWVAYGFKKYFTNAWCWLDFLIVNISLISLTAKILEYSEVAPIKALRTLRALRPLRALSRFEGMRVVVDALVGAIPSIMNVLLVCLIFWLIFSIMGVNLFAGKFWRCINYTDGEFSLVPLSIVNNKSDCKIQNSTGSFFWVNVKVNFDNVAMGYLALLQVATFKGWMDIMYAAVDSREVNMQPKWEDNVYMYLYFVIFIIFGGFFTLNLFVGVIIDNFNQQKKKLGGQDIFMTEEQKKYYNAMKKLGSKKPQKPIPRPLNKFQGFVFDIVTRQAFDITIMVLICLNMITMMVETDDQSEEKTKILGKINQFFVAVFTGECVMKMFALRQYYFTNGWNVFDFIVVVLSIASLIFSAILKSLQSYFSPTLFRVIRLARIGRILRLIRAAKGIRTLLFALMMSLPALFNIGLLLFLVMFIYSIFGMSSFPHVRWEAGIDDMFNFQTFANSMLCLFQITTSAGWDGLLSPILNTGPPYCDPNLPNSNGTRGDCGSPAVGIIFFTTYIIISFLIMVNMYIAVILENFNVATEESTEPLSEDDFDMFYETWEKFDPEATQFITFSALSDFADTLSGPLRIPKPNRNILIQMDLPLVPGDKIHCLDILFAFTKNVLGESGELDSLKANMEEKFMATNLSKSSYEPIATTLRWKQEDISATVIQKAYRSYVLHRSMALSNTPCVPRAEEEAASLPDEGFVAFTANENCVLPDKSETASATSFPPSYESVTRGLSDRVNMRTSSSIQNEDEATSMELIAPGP
test.summary: Inhibition of human Nav1.8/beta1 expressed in HEK293 cells by manual patch clamp electrophysiology
Assay type: cell-based
Reported pIC50 values follow for various compounds
# pIC50 = -log10(concentration in molar units)

Examples from the recorded data:
Ask | Give the reported pIC50 for this compound. Cc1nocc1C(=O)Nc1ccc(-c2ccccc2OC(F)(F)F)c(N)n1
Reply | 6.59

Ask | Give the reported pIC50 for this compound. COc1ccc(Cl)c(-c2ccc(NC(=O)c3ccnn3C)nc2N)c1
Reply | 6.72

Continue with the next compound.
Ask | Give the reported pIC50 for this compound. CNC(=O)c1ccc(-c2cc(Cl)cc(Cl)c2Cl)c(N)n1
Reply | 6.72
